- System: HepG2 cell line
- Experiment: Resazurin cell growth inhibition assay, HepG2
- Format: cell-based, human
- Conditions: Homo sapiens, HepG2, converted from μg/mL; read-out: IC50 against HepG2 cell line, equivalent in μM
Assay Readout: IC50

CN(C)c1ccc(C2CC(c3c4ccccc4cc4ccccc34)=NN2c2nc(-c3ccc(F)cc3)c(C#N)c(=O)[nH]2)cc1 (stereo not shown) [Compound 4f] :: 7.2 µM
COc1cccc2c1C(=O)c1c(O)c3c(c(O)c1C2=O)C[C@@](O)(C(=O)CO)C[C@@H]3O[C@H]1C[C@H](N)[C@H](O)[C@H](C)O1 [Doxorubicin, reference compound] :: 10.1 µM
N#Cc1c(-c2ccc(F)cc2)nc(N2N=C(c3c4ccccc4cc4ccccc34)CC2c2ccc(F)cc2)[nH]c1=O (stereo not shown) [Compound 4e] :: 9.6 µM
CN(C)c1ccc(-c2nc(N3N=C(c4c5ccccc5cc5ccccc45)CC3c3ccc(F)cc3)[nH]c(=O)c2C#N)cc1 (stereo not shown) [Compound 4q] :: 11.8 µM
